Study system: Pim-1 stably transfected into the U2OS human osteogenic sarcoma line (Homo sapiens, UniProt P11309)
Construct: expressed in transfected cells; host or cells: U2OS human osteogenic sarcoma line
Sequence (P11309 whole entry): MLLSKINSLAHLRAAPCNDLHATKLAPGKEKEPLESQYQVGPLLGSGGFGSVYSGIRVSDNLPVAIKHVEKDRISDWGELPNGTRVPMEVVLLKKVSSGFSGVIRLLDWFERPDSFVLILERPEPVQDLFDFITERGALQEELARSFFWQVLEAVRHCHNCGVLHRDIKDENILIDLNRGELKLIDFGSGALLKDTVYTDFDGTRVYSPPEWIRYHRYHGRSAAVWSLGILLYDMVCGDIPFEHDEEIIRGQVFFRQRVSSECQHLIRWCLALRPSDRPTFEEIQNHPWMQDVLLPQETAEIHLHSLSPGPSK
Experiment notes: Pim cell assay, phospho-BAD normalized against total BAD, U2OS stably transfected with Pim-1
Format: cell-based
Protocol conditions: U2OS cells stably transfected with Pim-1, phospho-BAD; high dose […]; read-out: Pim1_Cell_IC50
Exercise: for every item that follows, state its recorded log10 IC50.
On a log10 scale: recorded IC50, unit µM.

CS(=O)(=O)c1ccc(-c2ccc3[nH]nc(-c4cncc(N5CCC(N)CC5)n4)c3c2)cc1 [Example 59] = 0.33

Working through the 7 molecules below one at a time, give log10 IC50 for each.
1. COc1cc(-c2ccc3[nH]nc(-c4cncc(N5CCC(N)CC5)n4)c3c2)nc(OC)n1 [Example 9]
2. NC1CCN(c2cncc(-c3n[nH]c4ccc(-c5cccc(F)c5F)cc34)n2)CC1 [Example 71]
3. NC1CCN(c2cncc(-c3n[nH]c4ccc(-c5ccc6scnc6c5)cc34)n2)CC1 [Example 53]
4. Cn1ccc2cc(-c3ccc4[nH]nc(-c5cncc(N6CCC(N)CC6)n5)c4c3)ccc2c1=O [Example 49]
5. C1=C(c2ccc3[nH]nc(-c4cncc(O[C@@H]5CCCNC5)n4)c3c2)CCOC1 [Example 148]
6. O=C(NC1CC1)c1ccnc(-c2ccc3[nH]nc(-c4cncc(O[C@@H]5CCCNC5)n4)c3c2)c1 [Example 157]
7. Nc1cc(-c2ccc3[nH]nc(-c4cncc(N5CCC(N)CC5)n4)c3c2)ccc1N1CCOCC1 [Example 105]

1: -0.36; 2: -0.59; 3: -0.55; 4: 0.13; 5: -0.50; 6: 0.24; 7: -0.32
